Origin of values: patent US8828983B2

Parameter 'readout' = pKi; parameter 'system' = purified human Factor XIa (Homo sapiens (Human)).
Sequence (P03951 388-625): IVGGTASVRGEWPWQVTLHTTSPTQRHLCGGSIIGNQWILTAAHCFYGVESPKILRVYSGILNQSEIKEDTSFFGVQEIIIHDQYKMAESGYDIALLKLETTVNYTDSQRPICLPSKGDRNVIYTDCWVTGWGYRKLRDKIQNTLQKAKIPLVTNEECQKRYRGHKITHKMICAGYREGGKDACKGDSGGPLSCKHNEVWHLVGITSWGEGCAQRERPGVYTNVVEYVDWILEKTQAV
Sequence (P03951 19-387 partner): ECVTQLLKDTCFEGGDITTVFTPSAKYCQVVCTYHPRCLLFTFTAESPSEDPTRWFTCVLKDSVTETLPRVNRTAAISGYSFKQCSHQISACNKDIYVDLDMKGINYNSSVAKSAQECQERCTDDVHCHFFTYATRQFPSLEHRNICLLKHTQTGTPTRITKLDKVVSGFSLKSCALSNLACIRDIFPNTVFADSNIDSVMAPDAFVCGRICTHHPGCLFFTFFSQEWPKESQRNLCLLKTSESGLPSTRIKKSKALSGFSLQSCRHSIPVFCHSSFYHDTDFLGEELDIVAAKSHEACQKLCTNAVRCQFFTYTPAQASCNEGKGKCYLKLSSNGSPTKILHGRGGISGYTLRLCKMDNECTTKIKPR
Please note pKi is a logarithmic value: minus log10 of concentration in mol/L. Answer with that number alone.

{"columns": ["Molecule", "pKi"],
 "data": [
  ["COC(=O)Nc1ccc2c(c1)NC(=O)CCc1nc(ccc1F)CC(NC(=O)[C@H]1CC[C@H](C)CC1)c1nc-2c[nH]1 (some centres unmarked) [Example 143]", 5.88],
  ["COC(=O)Nc1ccc2c(c1)CCCCc1ccc(cc1)C[C@H](NC(=O)/C=C/c1cc(Cl)ccc1-n1cnnn1)c1nc-2c[nH]1 [Example 111]", 7.15]
]}

Ask: # pKi lookup, item COC(=O)Nc1ccc2c(c1)NC[C@@H]1CCN(C1)C(=O)C[C@H](NC(=O)/C=C/c1cc(Cl)ccc1-n1cnnn1)c1nc-2c[nH]1 [Example 86]
Result: 5.62
